System: SNB-19
Experiment: Anticancer activity against human SNB19 cells assessed cell growth at 10 uM after 48 hrs by sulforhodamine B assay relative to control
Format: functional
Response field label takes 1 when Activity is strictly below 80% and -1 in all other cases.

Criterion: Activity strictly below 80%. Is it met by `CCCCCCCC[n+]1ccn(C)c1.F[P-](F)(F)(F)(F)F` ?
-1

Criterion: Activity strictly below 80%. Is it met by `CCCCCCCCCCCCCCCCCC[n+]1ccn(C)c1.O=S(=O)([N-]S(=O)(=O)C(F)(F)F)C(F)(F)F` ?
1

Criterion: Activity strictly below 80%. Is it met by `Cn1cc[n+](CCO)c1.O=S(=O)([N-]S(=O)(=O)C(F)(F)F)C(F)(F)F` ?
-1

Criterion: Activity strictly below 80%. Is it met by `CCCCCCCCCCCC[n+]1ccn(C)c1.[Cl-]` ?
1

====

Field: Activity. Provide a value for each of the molecules that follow.
System: BT-549
Experiment: Anticancer activity against human BT549 cells assessed cell growth at 10 uM after 48 hrs by sulforhodamine B assay relative to control
Format: functional
Respond numerically; units are % and should not be typed.

`CCCCCCCCCCCCCCCCCC[n+]1ccn(C)c1.[Cl-]` tested on BT-549 gave Activity: -55.64

`Cn1cc[n+](CCO)c1.O=S(=O)([N-]S(=O)(=O)C(F)(F)F)C(F)(F)F` tested on BT-549 gave Activity: 114.11

`CCCCCCCCCCCCCCCCCC[n+]1ccn(C)c1.F[P-](F)(F)(F)(F)F` tested on BT-549 gave Activity: -23.5

`CCCCCC[n+]1ccn(C)c1.FC(F)(F)C(F)(F)[P-](F)(F)(F)(C(F)(F)C(F)(F)F)C(F)(F)C(F)(F)F` tested on BT-549 gave Activity: 54.78

`CCCCCCCC[n+]1ccn(C)c1.F[P-](F)(F)(F)(F)F` tested on BT-549 gave Activity: 60.35

====

System: SW-620
Test: Anticancer activity against human SW620 cells assessed cell growth at 10 uM after 48 hrs by sulforhodamine B assay relative to control
Format: functional
metric_name: Activity (%)
Respond numerically; units are % and should not be typed.

Reported Activity for `CCCCCC[n+]1ccn(C)c1.FC(F)(F)C(F)(F)[P-](F)(F)(F)(C(F)(F)C(F)(F)F)C(F)(F)C(F)(F)F` was 80.17

Reported Activity for `CCCCCCCCCCCCCCCCCC[n+]1ccn(C)c1.[Cl-]` was -45.24

Reported Activity for `CCCCCC[n+]1ccn(C)c1.O=S(=O)([N-]S(=O)(=O)C(F)(F)F)C(F)(F)F` was 99.75

Reported Activity for `CCCCCCCCCCCCCCCC[n+]1ccn(C)c1.[Cl-]` was -66.67

Reported Activity for `Cn1cc[n+](Cc2ccccc2)c1.F[P-](F)(F)(F)(F)F` was 118.52

====

Tested on: RXF 393
Assay: Anticancer activity against human RXF393 cells after 48 hrs by sulforhodamine B assay
Format: functional
Conditions: Homo sapiens, RXF 393, 48 h
Response field label takes label 1 when GI50 is strictly below 400 nM and label 0 in all other cases.

Criterion: GI50 strictly below 400 nM. Is it met by `CCCCCCCCCCCCCCCC[n+]1ccn(C)c1.[Cl-]` ?
label 1

Criterion: GI50 strictly below 400 nM. Is it met by `CCCCCCCCCCCCCCCCCC[n+]1ccn(C)c1.[Cl-]` ?
label 1

Criterion: GI50 strictly below 400 nM. Is it met by `CCCCCCCCCCCC[n+]1ccn(C)c1.[Cl-]` ?
label 0

Criterion: GI50 strictly below 400 nM. Is it met by `CCCCCCCCCCCCCCCCCC[n+]1ccn(C)c1.O=S(=O)([N-]S(=O)(=O)C(F)(F)F)C(F)(F)F` ?
label 0

Criterion: GI50 strictly below 400 nM. Is it met by `CCCCCCCCCCCCCCCCCC[n+]1ccn(C)c1.FC(F)(F)C(F)(F)[P-](F)(F)(F)(C(F)(F)C(F)(F)F)C(F)(F)C(F)(F)F` ?
label 0
